# System: THRa:RXRa (NR concentration 90 nM, RXRa partner concentration 90 nM)
# Assay Method Text: PBM binding z-score (relative to random genomic background probes); higher = stronger binding; sequences stand for … in GC…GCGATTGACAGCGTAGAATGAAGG

[
  {
    "Residue Sequence": "TCCCGGAGGACACGAAGGTCAGAGCTTTCCAGAG",
    "PBM binding z-score": 2.83
  },
  {
    "Residue Sequence": "TCCAGTAGGTTACCAATGGGGCATTCAGCTTTCT",
    "PBM binding z-score": 0.145
  },
  {
    "Residue Sequence": "TCTGCTAGGCCAACGATGGTCAGCTAATCTGCTA",
    "PBM binding z-score": -0.441
  },
  {
    "Residue Sequence": "CGTACTAGGTCATCCAGGACAGTGAATACATTGA",
    "PBM binding z-score": 3.76
  },
  {
    "Residue Sequence": "CCTTACGGGTCATGGTTATAGCACGGGTGGTACG",
    "PBM binding z-score": 2.67
  },
  {
    "Residue Sequence": "CCTACTGGGCCCAGGTCATTGATCAGTCAAAGCA",
    "PBM binding z-score": 2.93
  }
]
